Test: NCI Yeast Anticancer Drug Screen. Data for the sgs1 mgt1 strain (AID 161);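 further: 0% = growth of cultures given vehicle only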
Settings: S. cerevisiae sgs1 mgt1 strain, at 50.0 µM, active compounds read high
Protocol: Growth inhibition of yeast strains with defined genetic alterations is measured as a screen for potential anti-cancer activity. Selected strains with alterations in DNA damage repair or cell cycle control were exposed to compounds and growth inhibition was measured relative to vehicle treated controls. The strain used in this assay is sgs1 mgt1
Compounds without any hit were thinned out: in the full panel of roughly 79,000, 15% have a hit.
assayEndpoint: growth inhibition (%)
Please give a number only; it is taken to be in %.

[[record]]
compound = "COC1OCC(NC(=O)CNC(=O)CCCCCCCCCCCCC(C)C)C(O)C1O (configuration not stated)"
valueunits = "%"
readoutnumber = 8.75


Task: # query: growth inhibition of entry OCCNc1ncnc2[nH]ncc12
Output: -20.6

Task: # query: growth inhibition of entry CC(=O)Oc1cc(C)ccc1C
Output: -18.2

Task: # query: growth inhibition of entry c1ccc(N=C2SC(=NNc3ccccc3)SC2=Nc2ccccc2)cc1
Output: -21.9

Task: # query: growth inhibition of entry Cc1ccc(Cl)cc1NC(=O)C(C)Oc1ccccc1 (configuration not stated)
Output: -2

Task: # query: growth inhibition of entry C=CCOC(=O)Cc1ccccc1C(=O)OCC=C
Output: -6.6

Task: # query: growth inhibition of entry Cc1cccc(OCCCCCl)c1
Output: -8.25

Task: # query: growth inhibition of entry Cc1cccc(C(=O)NN)c1
Output: -20.2

Task: # query: growth inhibition of entry NC1=NC(=O)C2(CCCCC2)S1
Output: -21.2

Task: # query: growth inhibition of entry CCC(CCC(=O)O)C1CCCCC1 (configuration not stated)
Output: 31.1

Task: # query: growth inhibition of entry CC(C)=NNc1snnc1C(N)=O
Output: 13.3

Task: # query: growth inhibition of entry O=C(NC(NC(NC(=O)c1ccc([N+](=O)[O-])cc1)c1ccc([N+](=O)[O-])cc1)c1ccc([N+](=O)[O-])cc1)c1ccc([N+](=O)[O-])cc1 (configuration not stated)
Output: 1.65

Task: # query: growth inhibition of entry CC1C(=O)CCC2CCCCC21 (configuration not stated)
Output: 8.05

Task: # query: growth inhibition of entry C=C(C)C#CC1(O)C=C(OC)C(OC)=CC1=O (configuration not stated)
Output: -10.1

Task: # query: growth inhibition of entry O=C(N/N=C/c1cc(-c2ccccc2Cl)c(-c2ccccc2Cl)o1)c1ccncc1
Output: 38.4

Task: # query: growth inhibition of entry CC1OC(O[C@H]2CC[C@]3(C)[C@H]4CC=C5[C@@H]6[C@@H](C)[C@H](C)CC[C@]6(C(=O)O)CC[C@@]5(C(=O)O)[C@]4(C)CC[C@H]3C2(C)C)C(O)C(O)C1O (some centres not stated)
Output: -10.6

Task: # query: growth inhibition of entry Cc1ncc([N+](=O)[O-])n1CCNC(=O)CCCn1cnc([N+](=O)[O-])n1
Output: -15.8

Task: # query: growth inhibition of entry O=S(=O)(NC1c2ccccc2Oc2ccccc21)c1ccc2ccccc2c1
Output: 16.6

Task: # query: growth inhibition of entry CCOC(=O)CCc1c(C)c2c(OC(C)=O)cc(OC(C)=O)cc2oc1=O
Output: 17.4

Task: # query: growth inhibition of entry O=C(Nc1ccc(Cl)cc1[N+](=O)[O-])Oc1ccc(C(=O)OCc2ccccc2)cc1
Output: 71.5

Task: # query: growth inhibition of entry CCOc1ccc(OCC)c2c1C(=O)c1ccccc1C2=O
Output: 1.15

Task: # query: growth inhibition of entry CC(C)NC(=O)CCC(=O)O
Output: -17.9

Task: # query: growth inhibition of entry CCCCNC(=O)CC
Output: 3
